System: GSK3A;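 note: KINOMEscan kinase panel screen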
Details: concentration: 1 μM,replicates: in singlicate; n = 1
Each entry below carries its recorded %Inh.
outcome_measure: %Inh (%)

                                    compound  outcome_measure  measured_result
 0  FC(F)(F)c1cc(Br)cc(Nc2nccc(-c3cnn4ncccc34)n2)c1             %Inh             90.4
 1  c1ccc(Oc2ccc(Nc3ccnc4ccc(-c5ccccn5)cc34)cc2)cc1             %Inh                7
 2  C[C@@H](Oc1cc(-n2cnc3cc(-c4ccncc4)ccc32)sc1C(N)=O)c1ccccc1Cl             %Inh               13
 3  CS(=O)c1ccc(-c2coc3ccc(-c4n[nH]c(=O)o4)cc23)cc1 (stereo not shown)             %Inh             93.3
 4  COC(=O)c1cccc(NC(=O)NC2CCN(c3ccnc(NCc4ccc(F)cc4)n3)CC2)c1             %Inh                6
 5  OCCn1cc(-c2cnc3nnn(Cc4ccc5ncccc5c4)c3n2)cn1             %Inh                0
 6  CSc1nccc(-c2c(-c3ccc(F)cc3)ncn2CCCN2CCOCC2)n1.Cl             %Inh                0
 7      Cn1cc(-c2cccc3c(N)c(C(N)=O)nnc23)cn1             %Inh                7
 8  CN1CCN(CCCNc2nccc(-c3c(-c4ccc(F)cc4)nn4cc(C(N)=O)ccc34)n2)CC1             %Inh               33
 9             O=C1NCCc2[nH]c(-c3ccncc3)cc21             %Inh               88
10  Cc1ccn2nc(-c3ccc(F)cc3)c(-c3ccncc3)c2c1.Cl             %Inh                9
11  Cc1ccc(C(=O)Nc2ccc(Oc3ccc4nc(NC(=O)C5CC5)cn4c3)c(F)c2)c(=O)n1-c1ccccc1             %Inh               39
12  COc1cc2nccc(Nc3ccc(Oc4ccccc4)cc3)c2cc1OC.Cl             %Inh                6
13     O=C(Nc1n[nH]c2cc(-c3ccco3)ccc12)C1CC1             %Inh             96.2
14  COc1cc2ncn(-c3cc(OCC4CCCCC4)c(C(N)=O)s3)c2cc1OC             %Inh                0
15  COc1cccc(CNC(=O)NC2CCN(c3ccnc(Nc4cc(OC)c(OC)c(OC)c4)n3)C2)c1 (stereo not shown)             %Inh                0
16  CCOC(=O)N1CCC(n2cnc(-c3ccc(F)cc3)c2-c2ccnc(N)n2)CC1             %Inh                0
17  CN(c1ccccc1CNc1nc(Nc2ccc3c(c2)CC(=O)N3)ncc1C(F)(F)F)S(C)(=O)=O             %Inh               64
18    CS(=O)(=O)Nc1ccc(-c2ccnc3[nH]ccc23)cc1             %Inh                0
19  Cn1ccc2ncnc(Oc3ccc(NC(=O)Nc4cccc(C(F)(F)F)c4)c(F)c3)c21             %Inh                2
20  C[C@@H](Oc1cc(-n2cnc3ccc(-c4ccncc4)cc32)sc1C(N)=O)c1ccccc1Cl             %Inh               76
21  Cn1ccc2ncnc(Oc3ccc(NC(=O)Nc4cncc(C(F)(F)F)c4)c(Cl)c3)c21             %Inh                0
